# MEASUREMENT_PROTOCOL: Hydrolysis of acylacronycinium salts in presence of complexing agents
# Assay type: physicochemical
# TEST_PARAMETERS: water, pH 6, sodium gentisate 0.1 M/l; 10^-4 M drug, water, 25° C., pH 6.0; read-out: Apparent half-life, t1/2
PROPERTY_NAME: half-life at 100 µM (h)
Numbers only, in h.

Please indicate half-life at 100 µM recorded for COc1cc2c(c3c1c(OC(C)=O)c1ccccc1[n+]3C)C=CC(C)(C)O2 [acetylacronycinium perchlorate, Acetylacronycinium Perchlorate]
5.83

###

# MEASUREMENT_PROTOCOL: Hydrolysis of acylacronycinium salts in presence of complexing agents
# Format: physicochemical
# TEST_PARAMETERS: water, pH 6.5, 1:1 complex with sodium gentisate; two-equilibria model; μ = 1.0 M, 25.0°C, pH 6.5, 520 nm; read-out: half-life of hydrolysis, 1:1 complex
PROPERTY_NAME: half-life (h)
One number for each entry, in h.

Please indicate half-life recorded for COc1cc2c(c3c1c(OC(C)=O)c1ccccc1[n+]3C)C=CC(C)(C)O2 [acetylacronycinium perchlorate, Acetylacronycinium Perchlorate]
2
